Test system: rSmTAChE (Schistosoma mansoni);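 also: mostly 20 µM final but a few compounds at 5 or 10 µM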
Sequence (A0A3Q0KMM5 27-661 limits assumed): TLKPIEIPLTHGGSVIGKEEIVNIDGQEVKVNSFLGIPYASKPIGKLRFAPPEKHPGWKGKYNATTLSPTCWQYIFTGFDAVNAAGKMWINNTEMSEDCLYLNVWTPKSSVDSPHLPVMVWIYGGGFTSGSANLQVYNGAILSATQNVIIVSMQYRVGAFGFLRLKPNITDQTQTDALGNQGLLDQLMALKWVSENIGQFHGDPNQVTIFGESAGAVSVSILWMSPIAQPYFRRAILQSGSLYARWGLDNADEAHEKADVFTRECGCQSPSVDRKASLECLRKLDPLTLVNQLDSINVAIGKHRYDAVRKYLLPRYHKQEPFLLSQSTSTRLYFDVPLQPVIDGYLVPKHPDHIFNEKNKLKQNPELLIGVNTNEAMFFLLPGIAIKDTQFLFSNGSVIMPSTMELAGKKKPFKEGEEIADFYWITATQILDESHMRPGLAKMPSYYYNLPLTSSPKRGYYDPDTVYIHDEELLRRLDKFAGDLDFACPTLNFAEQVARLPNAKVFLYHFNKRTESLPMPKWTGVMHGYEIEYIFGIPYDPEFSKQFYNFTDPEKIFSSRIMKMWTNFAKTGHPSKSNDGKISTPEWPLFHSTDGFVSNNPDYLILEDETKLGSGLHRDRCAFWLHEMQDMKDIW
Protocol details: biochemical
Reported values of Inhibition (%) Replicate B for individual entries
Output spec: scalar in %, unitless text.

Known results for molecules:
Query: Inhibition (%) Replicate B; subject: `C[C@H](NC(=O)C(C)(C)Oc1ccc(C(F)(F)F)cn1)[C@@H](Cc1ccc(Cl)cc1)c1cccc(C#N)c1`
64.40

Query: Inhibition (%) Replicate B; subject: `COc1ccc(NC(=O)Nc2ccc3c(c2)[C@@H]2C[C@H](CC(=O)NCc4ccc5c(c4)OCO5)O[C@H](CO)[C@@H]2O3)cc1`
88.63

Query: Inhibition (%) Replicate B; subject: `C=CCNc1nc(NCC=C)nc(N2CCN(C(c3ccc(F)cc3)c3ccc(F)cc3)CC2)n1`
70.28

Query: Inhibition (%) Replicate B; subject: `N#C[C@H]1[C@H](c2ccc(C3=CCCCC3)cc2)[C@@H](CO)N1S(=O)(=O)c1ccccc1`
61.28

Further cases:
Query: Inhibition (%) Replicate B; subject: `COc1ccccc1-c1cccc(-c2nc(C(=O)NCc3ccncc3)cc3c2[C@@H](CCO)N([S@+]([O-])C(C)(C)C)C3)c1`
63.89

Query: Inhibition (%) Replicate B; subject: `CCCCCCCCCCCCCCCC[N+](C)(C)C`
62.47

Query: Inhibition (%) Replicate B; subject: COC(=O)CCSCc1ccc(-c2onc(C)c2NC(=O)OC(C)c2ccccc2Cl)cc1 (stereo not shown)
73.75

Source listed as paper PMC12154458.
